assay: Inhibition of the binding of [3H]NT to neurotensin (NT) receptor in mouse brain tissue; format: tissue-based
Measurement name: Ki (nM)

1. COc1cccc(OC)c1-c1cc(C(=O)NC2(C(=O)O)C3CC4CC(C3)CC2C4)nn1-c1ccnc2cc(Cl)ccc12 (configuration not stated) [REMINERTANT] :: 3.9
